Cited source for all entries: patent US6444615B1

Tested on: Hairy Beggarticks (Bidens pilosa)
measurement.protocol: Herbicidal pre-emergence test, Hairy Beggarticks
Type: in vivo
condition.details: 1200 g/ha, scale of 0-100, 0 no activity, 100 total control, about two or four weeks after application
Catalogue of Herbicidal Activity BID (pre-emergence) readings, one per entry.
measured.parameter: Herbicidal Activity BID (pre-emergence)

[
  {
    "compound": "C#CCN1C(=O)COc2cc(F)c(N3C(=O)C(=O)N(CCC)C3=O)cc21",
    "target.or.system": "Hairy Beggarticks (Bidens pilosa)",
    "measured.parameter": "Herbicidal Activity BID (pre-emergence)",
    "recorded.value": 100
  },
  {
    "compound": "C#CCOc1cc(N2C(=O)C(=O)N(CCCC)C2=O)c(F)cc1Cl",
    "target.or.system": "Hairy Beggarticks (Bidens pilosa)",
    "measured.parameter": "Herbicidal Activity BID (pre-emergence)",
    "recorded.value": 0
  },
  {
    "compound": "C#CCN1C(=O)COc2cc(F)c(N3C(=O)C(=O)N(C)C3=O)cc21",
    "target.or.system": "Hairy Beggarticks (Bidens pilosa)",
    "measured.parameter": "Herbicidal Activity BID (pre-emergence)",
    "recorded.value": 95
  },
  {
    "compound": "C#CCN1C(=O)COc2cc(F)c(N3C(=O)C(=O)N(CC(F)(F)F)C3=O)cc21",
    "target.or.system": "Hairy Beggarticks (Bidens pilosa)",
    "measured.parameter": "Herbicidal Activity BID (pre-emergence)",
    "recorded.value": 0
  },
  {
    "compound": "CCCN1C(=O)C(=O)N(c2cc(F)c(F)cc2F)C1=O [Compound C1, reference compound]",
    "target.or.system": "Hairy Beggarticks (Bidens pilosa)",
    "measured.parameter": "Herbicidal Activity BID (pre-emergence)",
    "recorded.value": 0
  },
  {
    "compound": "C=CCOc1cc(N2C(=O)C(=O)N(CCCC)C2=O)c(F)cc1Cl",
    "target.or.system": "Hairy Beggarticks (Bidens pilosa)",
    "measured.parameter": "Herbicidal Activity BID (pre-emergence)",
    "recorded.value": 0
  },
  {
    "compound": "CN1C(=O)C(=O)N(c2cc(OC3CCCC3)c(Cl)cc2F)C1=O",
    "target.or.system": "Hairy Beggarticks (Bidens pilosa)",
    "measured.parameter": "Herbicidal Activity BID (pre-emergence)",
    "recorded.value": 0
  }
]
